# System: Paracentrotus lividus
# PROTOCOL_NOTES: Antimitotic activity against sea urchin embryo assessed as embryo spinning measured 2.5 to 6 hrs post-fertilization observed after 15 min to 20 hrs of treatment by light microscopy analysis
# Assay type: functional
# CONDITION_SUMMARY: time hrs 0.25-20
MEASURED_QUANTITY: EC (µM)
Numbers only, in µM.

INSERT INTO measurements (smiles_structure, measured_quantity, measured_value) VALUES
  ('COc1ccc(-c2nocc2-c2ccccc2)cc1', 'EC', 2);

Working through the 6 compounds below one at a time, give EC for each.
1. COc1ccc(/C=C\c2cc(OC)c(OC)c(OC)c2)cc1O
2. COc1cc([C@@H]2c3cc4c(cc3[C@H](O)[C@H]3COC(=O)[C@H]23)OCO4)cc(OC)c1OC
3. COc1ccc(-c2cnoc2-c2ccccc2)cc1
4. COc1ccc(-c2conc2-c2ccccc2)cc1
5. COc1cc2c(c(OC)c1OC)-c1ccc(OC)c(=O)cc1[C@@H](NC(C)=O)CC2
6. COc1cc(-c2cc(-c3cccc(O)c3)cnc2N)cc(OC)c1OC

### Response
0.05
0.5
0.1
0.1
0.05
1

---

# SYSTEM: Tubulin (Homo sapiens) (UniProt P68371+Q9H4B7+P0DPH7+P68366+Q13509+Q71U36+P04350+Q3ZCM7+P07437+P68363+Q9BQE3+Q6PEY2+Q13885+Q9BVA1+Q9BUF5)
# PROTOCOL_NOTES: Binding affinity to tubulin (unknown origin) assessed as change in gibbs free energy
# Assay type: protein-complex assay
MEASURED_QUANTITY: deltaG (kcal/mol)
Numbers only, in kcal/mol.

Some compounds with known deltaG results, for comparison:
INSERT INTO measurements (smiles_structure, measured_quantity, scale_unit, measured_value) VALUES
  ('COc1ccc(-c2nocc2-c2ccccc2)cc1', 'deltaG', 'kcal/mol', -9.15),
  ('COc1ccc(/C=C\c2cc(OC)c(OC)c(OC)c2)cc1O', 'deltaG', 'kcal/mol', -11.9),
  ('COc1ccc(-c2nocc2-c2cc(OC)c(OC)c(OC)c2)cc1', 'deltaG', 'kcal/mol', -10.9),
  ('COc1ccc(-c2oncc2-c2ccccc2)cc1', 'deltaG', 'kcal/mol', -9.15),
  ('COc1ccc(-c2cnoc2-c2ccccc2)cc1', 'deltaG', 'kcal/mol', -11.9);

Please examine the following record next.
Lab book: deltaG of `COc1ccc(-c2conc2-c2ccccc2)cc1` noted as -11.3

// provenance: ChEMBL document CHEMBL4699565
